target: L-lactate dehydrogenase (Plasmodium falciparum (isolate CDC / Honduras)); assay: PfLDH activity inhibition – cell lysate, 3D7 strain, counter-screen for P. falciparum growth inhibition project (AID 2304);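 also: 0% = vehicle and 100% = reference inhibitor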; conditions: P. falciparum 3D7 crude extract, LDH APAD/NBT absorbance; at 2 µM; hits give high values
Reported metric: inhibition (%)
Just the number please, in %, no unit attached.

Solved entries (count: 4):
>  <Molecule>
COc1ccccc1N1CCN(C(C(=O)NCc2ccc3c(c2)OCO3)c2ccc(C)cc2)CC1 (stereo unspecified)

>  <Measurement target>
L-lactate dehydrogenase (Plasmodium falciparum (isolate CDC / Honduras))

>  <inhibition, %>
2

$$$$
>  <Molecule>
CCc1ccc(-n2c(=O)c3cccnc3n2CC(=O)NC2CCCC2)cc1

>  <Measurement target>
L-lactate dehydrogenase (Plasmodium falciparum (isolate CDC / Honduras))

>  <inhibition, %>
-7

$$$$
>  <Molecule>
COc1cc2nc(NCCCN3CCCCC3)nc(NCc3ccccc3)c2cc1OC

>  <Measurement target>
L-lactate dehydrogenase (Plasmodium falciparum (isolate CDC / Honduras))

>  <inhibition, %>
1

$$$$
>  <Molecule>
Cc1ccc(C(NC(=O)c2ccccc2)c2ccc3cccnc3c2O)cc1 (stereo unspecified)

>  <Measurement target>
L-lactate dehydrogenase (Plasmodium falciparum (isolate CDC / Honduras))

>  <inhibition, %>
7

$$$$

## Task # get_value(readout= inhibition, system= L-lactate dehydrogenase (Plasmodium falciparum (isolate CDC / Honduras))) for `CN(C)CCNC(=O)c1ccc2c(c1)n(C1CCN(S(=O)(=O)c3ccc(-c4ccccc4)cc3)CC1)c(=O)n2CC1CCCCC1`
## Result -2

## Task # get_value(readout= inhibition, system= L-lactate dehydrogenase (Plasmodium falciparum (isolate CDC / Honduras))) for `Fc1cc(Cl)ccc1Nc1ccnc2cc(I)ccc12`
## Result -1
